# target: PSOMT1 ((R,S)-reticuline 7-O-methyltransferase) (Papaver somniferum)
# Construct: The full-length cDNA generated by RT-PCR was ligated into pFastBac HTa; His6 (N); made in house; host or cells: Spodoptera frugiperda Sf9 (baculovirus, pFastBac HTa)
# Sequence (Q6WUC2 whole entry): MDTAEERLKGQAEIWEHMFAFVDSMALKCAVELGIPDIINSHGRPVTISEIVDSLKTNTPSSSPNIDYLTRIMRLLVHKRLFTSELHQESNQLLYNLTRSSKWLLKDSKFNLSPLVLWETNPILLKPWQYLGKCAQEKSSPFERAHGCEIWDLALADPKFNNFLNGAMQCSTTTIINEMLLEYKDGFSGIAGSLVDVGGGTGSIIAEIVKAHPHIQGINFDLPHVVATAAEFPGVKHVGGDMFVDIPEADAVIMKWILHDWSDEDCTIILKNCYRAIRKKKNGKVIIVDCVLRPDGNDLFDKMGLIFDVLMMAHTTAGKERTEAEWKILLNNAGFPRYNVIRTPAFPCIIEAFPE
# Assay type: biochemical
# stated_conditions: PSOMT1
// temperature optimum lookup, one value per entry
Kindly provide the numeric value in °C only, without the unit symbol.

COc1ccc(C[C@H]2c3cc(O)c(OC)cc3CCN2C)cc1O [(S)-Reticuline] :: 37

Q: For the compound shown here, COc1ccc(C[C@@H]2c3cc(O)c(OC)cc3CCN2C)cc1O [(R)-Reticuline] , give the reported temperature optimum.
Result: 37

Q: Follow-up item: COc1ccc(C[C@@H]2c3cc(OC)c(O)cc3CCN2C)cc1O [(R)-Protosinomenine]
Result: 39

Q: Same again, this time with `COc1ccccc1O`
Result: 37

###

# target: PSOMT2 ((R,S)-norcoclaurine 6-O-methyltransferase) (Papaver somniferum, UniProt Q6WUC1)
# Construct: The full-length cDNA generated by RT-PCR was ligated into pFastBac HTa; His6 (N); made in house; host or cells: Spodoptera frugiperda Sf9 (baculovirus, pFastBac HTa)
# Sequence (Q6WUC1 whole entry): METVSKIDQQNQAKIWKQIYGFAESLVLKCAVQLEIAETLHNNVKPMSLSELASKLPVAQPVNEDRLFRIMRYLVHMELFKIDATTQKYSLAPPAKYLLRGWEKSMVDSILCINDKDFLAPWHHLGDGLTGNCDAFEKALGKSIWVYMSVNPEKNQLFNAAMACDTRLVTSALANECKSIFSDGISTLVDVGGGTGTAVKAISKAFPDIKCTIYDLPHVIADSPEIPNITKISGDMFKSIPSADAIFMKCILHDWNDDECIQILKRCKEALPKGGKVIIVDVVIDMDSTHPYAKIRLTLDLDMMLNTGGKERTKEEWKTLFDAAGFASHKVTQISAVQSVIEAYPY
# method_notes: Radioassay of recombinant PSOMT2 with [methyl-3H]-AdoMet (substrate specificity, kinetics, pH and temperature optima)
# Format: biochemical
# stated_conditions: PSOMT2
Measured Vmax Substrate of individual entries
Kindly report the value followed by its unit.

COc1ccc(C[C@@H]2NCCc3cc(O)c(OC)cc32)cc1O [(S)-Norprotosinomenine] :: 1 pmol/s

Q: What value of Vmax Substrate has been reported for the following compound? COc1cc(CC2c3cc(OC)c(O)cc3CCN2C)ccc1O (racemic) [(R,S)-Isoorientaline]
Result: 2 pmol/s

Q: Here is the next compound: COc1ccc(C[C@H]2NCCc3cc(O)c(OC)cc32)cc1O [(R)-Norprotosinomenine]
Result: 1 pmol/s

Q: Input Oc1ccc(CC2NCCc3cc(O)c(O)cc32)cc1 (racemic) [(R,S)-Norcoclaurine]
Result: 5 pmol/s

###

Quick reference for Km among some molecules
# target: PSOMT1 ((R,S)-reticuline 7-O-methyltransferase) (Papaver somniferum)
# Construct: The full-length cDNA generated by RT-PCR was ligated into pFastBac HTa; His6 (N); made in house; host or cells: Spodoptera frugiperda Sf9 (baculovirus, pFastBac HTa)
# Assay type: biochemical
# stated_conditions: PSOMT1; co-substrate AdoMet with the named substrate; read-out: Km AdoMet
# Protocol: Heterologous Expression and Enzyme Purification—The full-length cDNA generated by RT-PCR was ligated into pFastBac HTa that had been digested with restriction endonucleases BamHI and NotI. […] General Methods—Total RNA was isolated and RNA gels were run and blotted as described previously (20). […] The entire nucleotide sequence on both DNA strands of the full-length clone was determined by dideoxy cycle sequencing using internal DNA sequences for the design of deoxyoligonucleotides as sequencing primers. […]
Your answer is read as µM, so omit the unit and give the number.

Here are 3 molecules together with their reported answers.
COc1ccc(C[C@H]2c3cc(O)c(OC)cc3CCN2C)cc1O [(S)-Reticuline] :: 360
COc1ccc(C[C@@H]2c3cc(O)c(OC)cc3CCN2C)cc1O [(R)-Reticuline] :: 310
COc1ccc(C[C@@H]2c3cc(OC)c(O)cc3CCN2C)cc1O [(R)-Protosinomenine] :: 320

Continue with the next molecule.
Q: Can you look up Km on PSOMT1 ((R,S)-reticuline 7-O-methyltransferase) (Papaver somniferum) for COc1cc(CC2c3cc(OC)c(O)cc3CCN2C)ccc1O (racemic) [(R,S)-Isoorientaline] ?
Result: 260
